Catalogue of protein stability index readings, one per entry.
B1: KLHL12 (parent)
chain: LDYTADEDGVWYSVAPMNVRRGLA

variants of: B1; experiment: protein stability index of a GFP-peptide fusion (GPS, HEK-293T) (PSI 1-6); higher = more stable; settings: c terminus: a fixed tail appended;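 further: lentivirally expressed fusions sorted by FACS into six bins by GFP to DsRed ratio, PSI derived from sequencing read proportions per bin multiplied by bin number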
quantity measured: protein stability index

>>> measured_number("E7N")
2.09
>>> measured_number("G22C")
2.27
>>> measured_number("Y3G")
3.22
>>> measured_number("L1M")
2.2
>>> measured_number("D6V")
1.99
>>> measured_number("G22V")
1.35
>>> measured_number("R21V")
2.19
>>> measured_number("P16H")
2.57
>>> measured_number("D8N")
1.42
